Reported polymerase ribozyme fitness (log ratio) values for the following variants.
B1: TPR 5TU (parent)
chain: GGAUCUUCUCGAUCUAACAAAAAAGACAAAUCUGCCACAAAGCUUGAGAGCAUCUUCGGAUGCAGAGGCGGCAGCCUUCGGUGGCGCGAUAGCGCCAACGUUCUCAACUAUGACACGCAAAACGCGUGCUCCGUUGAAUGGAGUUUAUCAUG

Variants of: B1
PROTOCOL: polymerase ribozyme fitness, log enrichment relative to wild type (log ratio); higher = more active; in vitro selection for triplet polymerase activity
Variants at the floor of the assay were thinned out.
Please respond with just the number, no unit label.

C123A G141C ... 0.333
G94U C95A G152A ... -3.85
A20U G62C G94A ... -3.04
G94C A122C ... -0.988
A17U C72U C99U ... -1.38

Return polymerase ribozyme fitness (log ratio) (reported value) for this variant: C36U U56A C76U G86A A115C
-3.51

Report polymerase ribozyme fitness (log ratio) for A16G C36G
-4.12

Hello, please tell me recorded polymerase ribozyme fitness (log ratio) for this one: U13A A22U A89G C95A
-1.67

Give the reported polymerase ribozyme fitness (log ratio) for this variant. A22U A23C
-4

Values from the RNAGym collection of RNA variant scans (doi:10.1073/pnas.2313332121)
